# RP-LC retention time listing for each entry below
Assay: gradient 5% acetonitrile 3 min, to 50% in 2 min, to 85% in 15 min, held 3 min, 100 µL/min
Details: column: Zorbax Extend-C18 2.1 x 50 mm; eluents: water / acetonitrile, 0.1% formic acid
Express your answer in s, writing the number without its unit.

Task item: // lookup RP-LC retention time for FC(F)(F)c1cccc(-c2ccc(CNCC3CCNCC3)o2)c1
Reply: 580

Task item: // lookup RP-LC retention time for O=C(Cn1c(=O)oc2ccccc21)N1C[C@@H](CO)[C@H](c2ccccn2)C1
Reply: 591

Task item: // lookup RP-LC retention time for COc1ccc(CN2CC3(CCN(S(=O)(=O)Cc4ccccc4)CC3)C2=O)cc1
Reply: 882

Task item: // lookup RP-LC retention time for Cc1nc(-c2ccc3c(c2)CCN3C(=O)COc2ccc(Cl)cc2)no1
Reply: 976

Task item: // lookup RP-LC retention time for N#Cc1cccc(Cn2c(-c3nc(-c4ccccc4)no3)cccc2=O)c1
Reply: 688

Task item: // lookup RP-LC retention time for CN(C)CCNC(=O)c1cc2n(n1)CC(C)(C(=O)NCc1ccc(F)cc1)N(C)C2=O (centres undefined)
Reply: 576

Task item: // lookup RP-LC retention time for CCc1nc(-c2csc(S(=O)(=O)N3CCC(C(=O)Nc4ccc(OC)cc4)CC3)c2)no1
Reply: 930

Task item: // lookup RP-LC retention time for CC1CCN(c2cc(-n3cnc(C(=O)N4CCN(c5ccccc5)CC4)c3)ncn2)CC1
Reply: 1040

Task item: // lookup RP-LC retention time for Cc1cc(C)n(-c2ccnc(N3CCC(C(=O)NCCc4ccccc4)CC3)n2)n1
Reply: 839

Task item: // lookup RP-LC retention time for O=C(Nc1nc(-c2ccc(F)cc2)cs1)c1c(-c2ccccc2)nc2n1CCS2(=O)=O
Reply: 1000

Task item: // lookup RP-LC retention time for COc1ccc(N(C(=O)Nc2ccccc2OC)C2=NCCC2)cc1Cl
Reply: 1060

Task item: // lookup RP-LC retention time for O=C(c1ccc(C(F)(F)F)cc1)N1CCN(c2nc(CN3CCCCC3)cs2)CC1
Reply: 684

Task item: // lookup RP-LC retention time for c1ccc(-c2nc(-c3ccccn3)nc(-c3ccccn3)n2)nc1
Reply: 644

Task item: // lookup RP-LC retention time for COc1ccc(N2CCN(c3cc(SCC(=O)Nc4ccc(Cl)cc4F)ncn3)CC2)cc1
Reply: 1090

---

Assay: gradient 5% acetonitrile 3 min, to 50% in 2 min, to 85% in 15 min, held 3 min, 100 µL/min
Settings: column: Zorbax Extend-C18 2.1 x 50 mm; eluents: water / acetonitrile, 0.1% formic acid
Checkbox rule: RP-LC retention time lower than 800 s = 1; RP-LC retention time not lower than 800 s = -1.

>>> group_label("Cc1ccc(NC(=O)C2=C(Nc3ccc4c(c3)n(C)c(=O)n4C)c3ccccc3S2(=O)=O)cc1")
-1
>>> group_label("CN1C[C@@H](NS(=O)(=O)N(C)C)C[C@@H]2c3cccc4c3c(cn4C)C[C@H]21")
1
>>> group_label("Cc1ccc(Nc2c(-c3ccc(O)cc3)nc3ncccn23)c(C)c1")
1
>>> group_label("COc1cc(OC)cc(C(=O)Nc2nc(-c3ccc4c(c3)NC(=O)CO4)cs2)c1")
-1
>>> group_label("COc1cc2c(cc1OC)C(C(=O)NCCN(C)C)C(c1ccccc1F)N(C)C2=O (centres undefined)")
1
>>> group_label("CC(C)CCNC(=O)c1cccc2c1CCN2C(=O)C1CC1")
-1

Now take the following compound into account.
Task item: Here's an entry: Cc1cnc(CC2CCN(C(=O)C(C)C)C2)n1C1CC1 (centres undefined) . Is its RP-LC retention time below 800 s?
Reply: 1

---

Assay: gradient 5% acetonitrile 3 min, to 50% in 2 min, to 85% in 15 min, held 3 min, 100 µL/min
Conditions: column: Zorbax Extend-C18 2.1 x 50 mm; eluents: water / acetonitrile, 0.1% formic acid
Checkbox rule: RP-LC retention time lower than 800 s = fulfilled; RP-LC retention time not lower than 800 s = not fulfilled.

>>> group_label("O=C(Nc1cc(-c2ccccn2)no1)c1ccc(Br)cc1")
"not fulfilled"
>>> group_label("O=C(NCc1cc(F)ccc1F)C1CCc2nc(N3CCCCC3)ncc2C1 (stereo not drawn)")
"fulfilled"
>>> group_label("COc1cc(-c2noc(C3CC(=O)N(c4cccc(Cl)c4)C3)n2)cc(OC)c1OC (stereo not drawn)")
"not fulfilled"

Task item: Here's an entry: COC(=O)c1ccc(Cl)cc1NC(=O)N(C)Cc1nc2cc(C(=O)N(C)C)ccc2n1C . Is its RP-LC retention time below 800 s?
Reply: fulfilled

Task item: Here's an entry: Cc1ccc(S(=O)(=O)c2cnc(N3CCN(c4ccccc4Cl)CC3)nc2N)cc1 . Is its RP-LC retention time below 800 s?
Reply: not fulfilled

---

Assay: gradient 5% acetonitrile 3 min, to 50% in 2 min, to 85% in 15 min, held 3 min, 100 µL/min
Conditions: column: Zorbax Extend-C18 2.1 x 50 mm; eluents: water / acetonitrile, 0.1% formic acid
Observation Type: RP-LC retention time (s)
Express your answer in s, writing the number without its unit.

>>> recorded_result("CCOC(=O)c1ccccc1NC(=O)Cn1cnc2nc(-c3cccnc3)ncc2c1=O")
744

Task item: // lookup RP-LC retention time for CCOC(=O)c1ccccc1NC(=O)CSc1nnc2c3cc(-c4ccc(C)cc4)nn3ccn12
Reply: 1080

Task item: // lookup RP-LC retention time for COc1cc(OC)c(NC(=O)Cn2ccn3nc(-c4ccccc4)c(CO)c3c2=O)cc1Cl
Reply: 849

Task item: // lookup RP-LC retention time for CCCNC(=O)C1CCCN(c2nc3ccsc3c(=O)n2-c2ccc(C)cc2)C1 (centres undefined)
Reply: 1250

---

# RP-LC retention time listing for each entry below
Assay: gradient 5% acetonitrile 3 min, to 50% in 2 min, to 85% in 15 min, held 3 min, 100 µL/min
Conditions: column: Zorbax Extend-C18 2.1 x 50 mm; eluents: water / acetonitrile, 0.1% formic acid
Express your answer in s, writing the number without its unit.

The following compounds have reported results that may help.
>>> recorded_result("CCCS(=O)(=O)c1nc2ccc(NS(=O)(=O)c3ccc(C(C)(C)C)cc3)cc2s1")
1110
>>> recorded_result("O=C(O)c1cnc(N2CCCCC2)nc1-c1ccccc1")
956
>>> recorded_result("O=c1c2cc3c(cc2nc(SCc2nc(-c4cccc(F)c4)no2)n1CC1CCCO1)OCO3 (stereo not given)")
1110
>>> recorded_result("CCC(=O)N1CCc2c(C(=O)NC3CCCC3)cccc21")
765
>>> recorded_result("CCOc1ccc(CC(=O)N2C[C@@H]3C[C@H]2C[C@@H]3NC(=O)c2cccs2)cc1")
782
>>> recorded_result("COc1cc(C(O)c2nc3ccccc3s2)cc(OC)c1OC (stereo not given)")
826
>>> recorded_result("CCC(=O)N1CCc2cc(CNC(=O)c3ccnn3C)ccc21")
665
>>> recorded_result("CCN1CCN(CCCNC(=O)CCCN2C(=O)COc3ccc(C)cc32)CC1")
585
>>> recorded_result("COc1ccccc1CNC(=O)CSc1ccc(-c2ccccn2)nn1")
713

Below: the item to evaluate.
Task item: // lookup RP-LC retention time for O=S(=O)(c1cccc2cccnc12)N1CCCn2nc(-c3ccncc3)cc2C1
Reply: 610

---

Test: gradient 5% acetonitrile 3 min, to 50% in 2 min, to 85% in 15 min, held 3 min, 100 µL/min
Conditions: column: Zorbax Extend-C18 2.1 x 50 mm; eluents: water / acetonitrile, 0.1% formic acid
Using RP-LC retention time as the sorting value, the categories are 1 (below 700 s), 2 (700 s to below 900 s), 3 (900 s or more)

Field: example entries. Status: answers known.
>>> group_label("O=C(NCCCn1c(-c2ccncc2)nc2cccnc21)NCCc1ccccc1")
1
>>> group_label("Cc1c(Cl)cccc1NC(=O)Cn1cnc2c(sc3nc(-c4ccccc4)ccc32)c1=O")
3
>>> group_label("CCN(CC)CCNc1ncnc2onc(-c3ccc(Cl)cc3)c12")
1
>>> group_label("COc1ccc(C(=S)N2CCN(c3cccc(Cl)c3)CC2)cc1")
3
>>> group_label("CC(=O)Nc1ccc(S(=O)(=O)N2CCC(CC(=O)N3CCN(c4ccccn4)CC3)CC2)cc1")
1
>>> group_label("Cc1nc2cc(N3CC(C(=O)NCc4ccc(OC(C)C)cc4)CC3=O)ccc2o1 (stereo not given)")
2
>>> group_label("Cc1cc(C(=O)NC(C)C)n[nH]1")
1
>>> group_label("CN(C)[C@@H]1CN(C(=O)c2ccc(F)c(F)c2)C[C@H]1CO")
1
>>> group_label("CCN1C(=O)C(CC(=O)NCCC(C)C)Sc2ncccc21 (stereo not given)")
2
>>> group_label("CCC(C(=O)N1CCN(c2cc(-c3ccccc3)ncn2)CC1)c1ccccc1 (stereo not given)")
1

Task item: Bin this entry: CCn1nccc1-c1cccc(-c2noc(C(C)NC(=O)c3ccccc3)n2)c1 (stereo not given)
Reply: 3
